- Test system: K4 kissing-loop RNA reporter
- ASSAY COMMENT: apparent KD of K4 kissing-loop reporter; higher = weaker reporter binding
- STUDY CONDITIONS: Eterna round: R107; input ligand: none
just bin them by apparent KD of K4 kissing-loop reporter: band 1: < 200 nM; band 2: ≥ 200 nM and < 500 nM; band 3: ≥ 500 nM

1) GCGCGUCAUGUCGGCGGUGACUACGCCGAUACCAGCCGGGAAACCGGCCCUUGGCAGCGGCGCGCCGGAGUGAUGUUCCGACAGA [#2 Exclusion - Theophylline A Attempt #3 (HarryS)]    band 1
2) CGUACGGUUUCUUUCUUUCCGUACGAGUGCCGAGGACCGGUACGGCCGCCACUCGCUACAGCCUAGUGAUGUUAGGAACGUGUUA    band 1
3) UGAUUUAACUGAAGGAGCGGCAAUAGAGAAGGAAAUAUAGUGAUGUUAUAUAAGAGAGAGAGCCAGGUAGGUCGCAGAGGGAGGA [ExArgB.F]    band 1
4) AGAAACUUGUAUGUCGGGUGUGCGCGCGAUACCAGCCAAAUGGAUGGCCCUUGGCAGCGCAGCGAGUGAUGUUCGCCCGCUUGAC [Exclusion Theophylline A GF 22]    band 2
5) ACCUGUAGUGAUGUUACUGGUGGUUAGGAAGGAGCGCCCGCGUGGGCAGGUAGGUCGCCUAAGCUAUGUGGGAAACCGCAUAUUG [#14 K4 Arginine A Same State]    band 1
6) GAACGGCGGGCGGCCGCCACUGGUAUACGAGUGAUGUUCGGAUAUACGUGAUGUAAGGUAAUUAACAGGACCGGGUCAGGGCCGG [whbob_SS_Tryp_B_t20]    band 2
7) GCGCGGGAGUGAUGUUCCAAGUGGUGUUAGCGAGGACCGGUACGGCCGCCACUCGUUACGGCCGGGCCGUAGGAUACACUGGCGC [Same State - Tryptophan A (Freestyle 17)]    band 2
8) UGUGGUGUAUCCUUUAGGAGUGAUGUUUUUCGAGGACCGGUACGGCCGCCACUCGAGUGAUGAGAGCGUCGUUGUGGUGGUUUGU [#16 K4 Tryptophan A Exclusion]    band 3
9) UGAUAGGACAGAAGGAGCGGCAGUGAUGUUGCCAAAAGGGUAAGGUGUCAAAAGACACCCUGCCAGGUAGGUCGCUGUCCUAUCU    band 1
10) ACGUAGUUCUAGGAUACCAGCCAAGGCCCAGGACAAAAGUCCUGGGUCGCCAGUGAUGUUGGCCCUUGGCAGCCUAGAACUACGA [Omei KL Theo B Exc B v11]    band 2
11) CUUGUACAUGCCGAGGUAGGUGCGGGUUAGCGAGGACCGGUACGGCCGCCACUCGCCAAGUGAUGUUUGGUCCUUUGGGUCGGCA    band 3

====

- System: K4 kissing-loop RNA reporter;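 note: bound reporter read as fluorescence of individual clusters on recovered sequencing chips by microscopy, with normalized cluster intensities fitted with a binding model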
- ASSAY COMMENT: apparent KD of K4 kissing-loop reporter; higher = weaker reporter binding
- STUDY CONDITIONS: Eterna round: R107; input ligand: arginine 13.2 mM
MEASURE: apparent KD of K4 kissing-loop reporter (nM)

1. GUACGCUCUCGAGUGAUGUUCGGUAAUCCUUAGGAUAUCGCUUUUGCGAGAAGGAAGGGAAUGAGGAAACUCGUUCUGAGUGUAC [FMN A 21]    299
2. CCGACUGCAGGAAGGAGCGGCGGUUGGAGUGAUGUUCCGGGUAGUGAUGUUACCAAGAUCCGCCAGGUAGGUCGCCUGUUGCUCG [Same State Arginine B GF11]    117
3. UUCUACGAGUGAUGUUCGUAGUGUAUUCACUAGGAUAUCGUUUUUUCGAGAAGGAGUGAGGAAGUGAUACGAAAGUAUCGCUUCC [FMN A 15]    353
4. UGUAUGUGAUUUGAUACCAGACCAGCUGGUGGUGUAUGAGUGAUGUUCAUGUUGGUUUGGGUCCCUUGGCAGCAAAUCGCAUACU [KL-SSTheoB30]    7.4
5. GUCCCGAGUGAUGUUCGGGUCGUUUGGGAAGGAGCGCCCGGAAGGGCAGGUAGGUCGCCCGGACCGUGCAGGUAACUGUGCGGCC [#2 Same State - Arginine A Attempt #18 (HarryS)]    146
6. GCUAUGGUAGGAAGGAGCGCUUAUUCAUUAAUAAGAGUGAUGUUCGAUAAUGAAUAUUUAUAGCAGGUAGGUCGCCUACUAUAGC [Arginine B K4 2]    223
